Test Description: Solubility
Format: physicochemical
Assay Setup: organic solvent or mixture; soluble in pyridine and chloroform; read-out: solubility
Measurement Kind: solubility

# solubility of CC(=O)OC(=O)c1cccc2oc(-c3cccc(OC(C)=O)c3N(C(C)=O)C(=O)c3ncccc3OC(C)=O)nc12 [tetraacetyl A-33853] = ≥ 1000 µg/mL

###

Test Description: physchem
Assay Setup: 66% dimethylformamide in water, pH 4.92, pKa
Measurement Kind: pKa
Number, no unit, nothing else.

# pKa of CC(=O)Oc1cccnc1C(=O)Nc1c(OC(C)=O)cccc1-c1nc2c(C(=O)O)cccc2o1 = 6.8

###

Test Description: physchem
Assay Setup: 66% dimethylformamide in water, pH 5, pKa (third titratable group)
Measurement Kind: pKa

# pKa of O=C(Nc1c(O)cccc1-c1nc2c(C(=O)O)cccc2o1)c1ncccc1O [A-33853] = ~12.2

###

Test Description: Acute toxicity in the mouse, IP
Assay Setup: in vivo
Measurement Kind: LD50

# LD50 of O=C(Nc1c(O)cccc1-c1nc2c(C(=O)O)cccc2o1)c1ncccc1O = > 300 mg/kg
